Molecular target: glucokinase (GK) (Homo sapiens)
Construct: I.D. No. 1 corresponds to residues 12-465 of glucokinase
Sequence (P35557 with tags, fused parts or gaps isoform P35557-2): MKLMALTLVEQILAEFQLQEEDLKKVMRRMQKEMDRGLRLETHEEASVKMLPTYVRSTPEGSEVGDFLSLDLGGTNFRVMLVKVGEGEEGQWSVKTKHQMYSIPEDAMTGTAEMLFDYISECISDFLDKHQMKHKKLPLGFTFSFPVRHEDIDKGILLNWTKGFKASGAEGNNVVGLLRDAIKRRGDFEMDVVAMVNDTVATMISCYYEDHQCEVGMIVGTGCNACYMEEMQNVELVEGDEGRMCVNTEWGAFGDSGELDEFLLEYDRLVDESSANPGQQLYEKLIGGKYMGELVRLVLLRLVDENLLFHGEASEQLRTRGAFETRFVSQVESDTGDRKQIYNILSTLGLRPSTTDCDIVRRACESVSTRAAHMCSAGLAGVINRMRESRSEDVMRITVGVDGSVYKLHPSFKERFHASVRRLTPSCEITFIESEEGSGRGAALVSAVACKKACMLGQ
Experiment: enzymatic glucokinase activity assay (ATP consumption, KinaseGlo luminescence)
Conditions: recombinant GK residues 12-465; 5 μM ATP, 5 mM Glucose; Kact = concentration that displays 50% of the maximal increase in GK activity; read-out: pKact
Counter-ions that a name gives are not always drawn.
EC50: recorded values

Previously resolved entries follow.
Cc1cc(S(C)(=O)=O)cc(=O)n1C(CC1CCOCC1)C(=O)Nc1nccs1 (stereo not drawn) [Example 7, trifluoroacetic acid salt]
> 15.8 µM
Cc1cc(C)cc(CC(C(=O)Nc2ncc(Cl)s2)n2ccc(S(C)(=O)=O)cc2=O)c1 (stereo not drawn)
> 15.8 µM

query: Requested field: EC50. Item: Cc1cc(S(=O)(=O)C2CC2)c(Cl)c(=O)n1[C@@H](CC1CCCCC1)C(=O)Nc1ncc(Cl)s1
result: < 1.58 µM

query: Recorded EC50 for Cc1cc(S(=O)(=O)C2CCCC2)cc(=O)n1[C@H](CC1CCOCC1)C(=O)Nc1ccc(Cl)cn1 , please?
result: > 15.8 µM

* * *

Target: glucokinase (GK) (Homo sapiens)
Construct: I.D. No. 1 corresponds to residues 12-465 of glucokinase; made in house; host or cells: E. coli DH10b-T1r
Assay: enzymatic glucokinase activity assay (ATP consumption, KinaseGlo luminescence)
Assay type: biochemical
Conditions: recombinant GK residues 12-465; 5 μM ATP, 5 mM Glucose; Kact = concentration that displays 50% of the maximal increase in GK activity; read-out: pKact
pEC50: −log10 of the molar value.
recorded.endpoint: pEC50

Consider the worked cases shown below.
CS(=O)(=O)c1ccn([C@H](CC2CCOCC2)C(=O)Nc2ncc(Cl)s2)c(=O)c1
< 4.80
COc1ccc2nc(NC(=O)[C@@H](CC3CCOCC3)n3ccc(S(=O)(=O)C4CC4)cc3=O)sc2n1
4.80 to 5.80

Attention now shifts to the item below.
query: pEC50 lookup needed for COc1ccc2nc(NC(=O)[C@H](CC3CCOCC3)n3ccc(S(=O)(=O)CCCO)cc3=O)sc2n1 , thanks.
result: 4.80 to 5.80

* * *

Listed below: pEC50 values for each entry.
Target: glucokinase (GK) (Homo sapiens)
Construct: I.D. No. 1 corresponds to residues 12-465 of glucokinase
Assay: enzymatic glucokinase activity assay (ATP consumption, KinaseGlo luminescence)
Conditions: recombinant GK residues 12-465; 5 μM ATP, 5 mM Glucose; Kact = concentration that displays 50% of the maximal increase in GK activity; read-out: pKact
pEC50: −log10 of the molar value.

Guide cases for pEC50, answers given:
Cc1cc(S(=O)(=O)C2CCCC2)cc(=O)n1C(CC1CCCCC1)C(=O)Nc1ncc(CN2CCOCC2)s1 (stereo not shown)
> 5.80
Cc1cc(S(=O)(=O)C2CC2)c(Cl)c(=O)n1[C@H](CC1CCCCC1)C(=O)Nc1ncc(Cl)s1
4.80 to 5.80
Cc1cc(S(=O)(=O)C2CCCC2)cc(=O)n1C(CC(C)C)C(=O)Nc1nccs1 (stereo not shown)
> 5.80
Cc1cc(N2CCCC2)cc(=O)n1C(CC1CCCCC1)C(=O)Nc1nccs1 (stereo not shown)
< 4.80
O=C(Nc1ccc(Cl)cn1)[C@H](CC1CCOCC1)n1ccc(S(=O)(=O)C2CCCC2)cc1=O
> 5.80

query: Any idea what its pEC50 is? The molecule is O=C(Nc1ncc(CN2CCOCC2)s1)C(CC1CCOCC1)n1ccc(S(=O)(=O)C2CC2)cc1=O (stereo not shown)
result: < 4.80

query: pEC50 for Cc1cc(S(=O)(=O)Cc2ccco2)cc(=O)n1C(CC1CCCCC1)C(=O)Nc1nccs1 (stereo not shown) ?
result: > 5.80

query: Entry Cc1cc(S(=O)(=O)C2CC2)cc(=O)n1[C@H](CC1CCCC1)C(=O)Nc1cnccn1 has what pEC50?
result: < 4.80

query: Requested field: pEC50. Item: O=C(Nc1ncc(F)s1)[C@H](CC1CCOCC1)n1ccc(S(=O)(=O)C2CCCC2)cc1=O
result: > 5.80

query: Can you share its pEC50? I mean this molecule: Cc1cc(-c2ccc(F)cc2)cc(=O)n1[C@@H](CC1CCCCC1)C(=O)Nc1nccs1
result: < 4.80

Taken from patent US8163779B2.
